Recorded values, source patent US20180030151A1.

target-system: recombinant human TFPI (tissue factor pathway inhibitor) (human, UniProt P10646 29-304)
assay-protocol: cell-based or functional assay
endpoint: A405, TF/FVIIa/FX complex assay, Ab 50 nM
No unit in the answer, only the number.

Per the record, clone A67 (antibody, V domains shown) VH: EVQLVESGGGLVKPGGSLRLSCAASGFTFSSYAMNWVRQAPGKGLEWVSTITTGGSYTYYADSVEGRFTISRDNAKNSLYLQMNSLRAEDTAVYYCARQDGNFLMDYWGQGTLVTVSS VL: DVVMTQTPLSLPVTLGQPASISCKSSQSLLDLDGKTYLNWLQQRPGQSPKRLIYLVSKLDSGVPDRFTGSGSGTDFTLKISRVEAEDVGVYYCWQGTHFPFTFGQGTKVEIKR has A405, TF/FVIIa/FX complex assay, Ab 50 nM of 0.938
